Cited source: patent US4465631A

- Test system: Alcaligenes faecalis
Where a name gives a salt, the structure may show the parent alone.
reportedEndpoint: MIC (µg/mL)

(1) COc1cccc(-c2cc(C(=O)N[C@@H](C(=O)N[C@@H]3C(=O)N4[C@@H]3SC(C)(C)[C@@H]4C(=O)O)c3ccccc3)no2)c1 [Example 3, sodium salt]
(2) CC1(C)S[C@@H]2[C@H](NC(=O)[C@H](NC(=O)c3cc(-c4cccs4)on3)c3ccccc3)C(=O)N2[C@H]1C(=O)O [Example 8, sodium salt]
Kindly compare 1 with 2 and tell me which has the lower MIC figure. Write down the label of the entry you select.
1
(1: 6.25 µg/mL, 2: 12.5 µg/mL)

----------
- System: Serratia marcescens
Counter-ions that a name gives are not always drawn.
reportedEndpoint: MIC (µg/mL)

Cc1ccc(-c2cc(C(=O)N[C@@H](C(=O)N[C@@H]3C(=O)N4[C@@H]3SC(C)(C)[C@@H]4C(=O)O)c3ccccc3)no2)cc1    12.5

(A) CC1(C)S[C@@H]2[C@H](NC(=O)[C@H](NC(=O)c3cc(-c4cccs4)on3)c3ccccc3)C(=O)N2[C@H]1C(=O)O [Example 8, sodium salt]
(B) COc1cccc(-c2cc(C(=O)N[C@@H](C(=O)N[C@@H]3C(=O)N4[C@@H]3SC(C)(C)[C@@H]4C(=O)O)c3ccccc3)no2)c1 [Example 3, sodium salt]
API: POST /compare with A and B ; response names the item with higher MIC. Write down the label of the entry you select.
A

----------
Structures can show the parent of a compound that is named as a salt.
Entries below carry reported MIC on Achromobacter xylosoxidans.
reportedEndpoint: MIC (µg/mL)

COc1cccc(-c2cc(C(=O)N[C@@H](C(=O)N[C@@H]3C(=O)N4[C@@H]3SC(C)(C)[C@@H]4C(=O)O)c3ccccc3)no2)c1 [Example 3, sodium salt]    3.13

(1) CC1(C)S[C@@H]2[C@H](NC(=O)[C@H](NC(=O)c3cc(-c4cccs4)on3)c3ccccc3)C(=O)N2[C@H]1C(=O)O [Example 8, sodium salt]
(2) Cc1ccc(-c2cc(C(=O)N[C@@H](C(=O)N[C@@H]3C(=O)N4[C@@H]3SC(C)(C)[C@@H]4C(=O)O)c3ccccc3)no2)cc1 [Example 1]
Kindly compare 1 with 2 and tell me which has the lower MIC figure. Write down the label of the entry you select.
2
(2: 1.56 µg/mL, 1: 3.13 µg/mL)
